These entries and their values trace back to PubChem BioAssay (NCI).

Experiment: NCI Yeast Anticancer Drug Screen. Data for the sgs1 strain (AID 173)
Conditions: S. cerevisiae sgs1 mutant, at 3.7 µM
The panel holds about 79,000 compounds, 15% with a hit somewhere; the sample as a whole holds those more often. Calls of active or inactive are those of the source. No stated cut-off is given here; in the data, active means growth inhibition above about 70%; inactive means the rest.
Output constraint: value belongs to Y for active, N for inactive

Assay outcome for `CCCCCCCCCCCCCCN` : what was it?
N

// repeat for CCOC(=O)CC1(C)/C(=N\Nc2ccc([N+](=O)[O-])cc2[N+](=O)[O-])CCC2C1CCC1(C)C(C(C)CCCC(C)C)CCC21 (configuration not stated) and report
N

Query `O=C1C(=O)N(c2ccccc2)[C@@]2(c3ccccc3)C(=Nc3ccccc3)OC(c3ccccc3)=C12` next
N

// repeat for `CC1(C)CC(=O)C(/C=N/c2nc(-c3ccc(Br)cc3)cs2)=C(O)C1` and report
N

For `O=C1c2cccc3cccc(c23)C(=O)N1O` then?
N

Also c1ccc2c(c1)N=C1CCCC3CCCC123 (configuration not stated) , if possible.
N

Request: `CCCCCc1c(CCCC)c(=O)[nH]c2cc(CNCC(OC)OC)ccc12`
N

Same lookup for COC(=O)C1CCCCC1C(=O)Nc1ccccc1 (configuration not stated) , please.
N

And then CC1CN(/N=C\c2ccc([N+](=O)[O-])o2)C(=O)O1 (configuration not stated) , what is it?
N

And then `CCOC(=O)Nc1ccc(C)c(NC(=O)OCC)c1` , what is it?
N

# iterate: `CCCNCC(=O)O[C@]1(CC)C(=O)OCc2c1cc1n(c2=O)Cc2cc3ccccc3nc2-1`
N

Request: `O=C(NC(N1CCN(c2cc3c(cc2F)c(=O)c(C(=O)O)cn3C2CC2)CC1)(C(F)(F)F)C(F)(F)F)c1ccccc1`
N

Also, `C[n+]1c(/C=C/c2ccc(/C=N/NC(=O)c3ccc(C(=O)N/N=C/c4ccc(/C=C/c5cn6ccccc6[n+]5C)cc4)cc3)cc2)cn2ccccc21` please.
Y

One more compound: `COc1c2c(c3c(c1CCC(=O)O)OC(C)(C)C=C3)OC(C)(C)C=C2`
N

Would you kindly repeat that for O=C1CCC(Cc2ccccc2)CN1 (configuration not stated) ?
N

What do we get for `CC(C)OC(=O)NNc1cccc(Cl)c1` ?
N

Moving on to CC1=NN(C(=O)CC(=O)NC(=O)/C=C\c2ccccc2)C(=O)C1N=Nc1ccc([N+](=O)[O-])cc1 (configuration not stated)
N

Okay, and CC1CCC(C2=CSC3CCCCC3N2)CC1 (configuration not stated) ?
N

// next record `COc1ccc(N=c2cc(-c3ccccc3)oc3ccccc23)cc1`
N

Would you kindly repeat that for C[C@H](CCC1=NC(C)(C)CO1)C1CCC2[C@@H]3C(O)C[C@@H]4CC(O)CC[C@]4(C)C3CC[C@@]21C (some centres not stated) ?
N

Same read-out for `Oc1ccc(N=Nc2ccc(Cl)cc2)cc1` ?
N

And for `CCN(CC)CC(=O)c1ccc2cc(Cl)c3ccccc3c2c1` ?
N
